The reported numbers originate from patent US9187438B2.

EXPERIMENTAL TARGET: 11β-HSD1 (Homo sapiens)
Construct: adding 1 μg of human hepatic microsome (Xenotech); tissue Xenotech; host or cells: human liver microsomes
Sequence (P28845 whole entry): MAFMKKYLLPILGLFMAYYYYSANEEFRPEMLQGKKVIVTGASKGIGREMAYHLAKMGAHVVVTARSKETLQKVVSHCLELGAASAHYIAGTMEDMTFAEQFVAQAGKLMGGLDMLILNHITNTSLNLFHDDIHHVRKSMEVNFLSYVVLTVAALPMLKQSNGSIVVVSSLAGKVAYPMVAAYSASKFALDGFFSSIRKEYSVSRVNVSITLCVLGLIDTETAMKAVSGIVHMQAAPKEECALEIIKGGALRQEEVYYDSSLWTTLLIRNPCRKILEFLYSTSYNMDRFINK
ASSAY PROTOCOL: Human enzymatic activity of 11β-HSD1 from liver microsomes, [3H]cortisone to [3H]cortisol conversion, SPA (inhibition % or EC50)
Type: biochemical
EXPERIMENTAL CONDITIONS: 10^−6M inhibitor, read-out: 11β-HSD1/SPA % inhib. (10^−6M)
Hi there, I'd appreciate the recorded inhibition at 1 µM for every entry that follows.
One number for each entry, in %.

1) CCN1C(C(=O)c2ccc3ccccc3c2)=C(O)c2ccc(F)cc2S1(=O)=O; 91
2) CCN1C(C(=O)c2ccc3ccccc3c2)=C(O)c2ccccc2S1(=O)=O; 88

Here's the next entry for you.
*Q* Which value of inhibition at 1 µM has been reported for `CC(=O)OC1=C(C(=O)c2ccc3ccccc3c2)N(C)S(=O)(=O)c2ccccc21` in the records?
*A* 91
